Listed molecules paired with reported log10(EC50)
- TARGET OR SYSTEM: P2Y purinoceptor 6 (Homo sapiens)
- Sequence (Q15077 whole entry): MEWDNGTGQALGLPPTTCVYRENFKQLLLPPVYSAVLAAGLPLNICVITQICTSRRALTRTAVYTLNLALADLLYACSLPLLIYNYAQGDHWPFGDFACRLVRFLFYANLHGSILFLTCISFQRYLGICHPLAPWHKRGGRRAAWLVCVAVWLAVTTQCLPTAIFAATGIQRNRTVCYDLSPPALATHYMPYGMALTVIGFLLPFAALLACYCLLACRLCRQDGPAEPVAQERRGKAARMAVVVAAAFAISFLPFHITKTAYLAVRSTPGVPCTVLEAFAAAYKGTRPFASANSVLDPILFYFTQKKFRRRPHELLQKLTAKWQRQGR
- ASSAY DETAILS: Agonist activity at human P2Y6 receptor expressed in human 1321N1 cells assessed as [3H]inositol phosphate accumulation by scintillation proximity assay
MEASURED PROPERTY: log10(EC50) (log10 of the value in µM)

INSERT INTO measurements (molecule, target_or_system, quantitative_result) VALUES
  ('Nc1cn([C@@H]2O[C@H](COP(=O)(O)OP(=O)(O)O)[C@@H](O)[C@H]2O)c(=O)[nH]c1=O', 'P2Y purinoceptor 6 (Homo sapiens)', -0.21),
  ('O=c1[nH]c(=S)ccn1[C@@H]1O[C@H](COP(=O)(O)OP(=O)(O)OP(=O)(O)OP(=O)(O)O)[C@@H](O)[C@H]1O', 'P2Y purinoceptor 6 (Homo sapiens)', 0.81),
  ('O=c1ccn([C@@H]2O[C@H](COP(=O)(O)OP(=O)(O)OP(=O)(O)OP(=O)(O)OCC(O)CO)[C@@H](O)[C@H]2O)c(=O)[nH]1 (some centres not stated)', 'P2Y purinoceptor 6 (Homo sapiens)', 0.91),
  ('O=c1ccn([C@@H]2O[C@H](COP(=O)(O)OP(=O)(O)OP(=O)(O)OC[C@H]3O[C@@H](n4ccc(=O)[nH]c4=O)[C@H](O)[C@@H]3O)[C@@H](O)[C@H]2O)c(=O)[nH]1', 'P2Y purinoceptor 6 (Homo sapiens)', -0.57),
  ('O=c1ccn([C@@H]2O[C@H](COP(=O)(O)OP(=O)(O)OP(=O)(O)OP(=O)(O)O[C@H]3O[C@H](CO)[C@@H](O)[C@H](O)[C@H]3O)[C@@H](O)[C@H]2O)c(=O)[nH]1', 'P2Y purinoceptor 6 (Homo sapiens)', 0.89),
  ('O=c1ccn([C@@H]2O[C@H](COP(=O)(O)OP(=O)(O)OP(=O)(O)OP(=O)(O)O)[C@@H](O)[C@H]2O)c(=S)[nH]1', 'P2Y purinoceptor 6 (Homo sapiens)', 0.83);
